Recorded values, source patent US20190359723A1.

target: T1, IL-13RA2 huFc (human); test: SPR (Biacore T200), nickel-purified scFv
T1 construct: Expressed in 293F cells, purified on protein A; also called human IL13RA2; recombinant IL-13RA2
T1 sequence (chain, as listed by the source limits assumed): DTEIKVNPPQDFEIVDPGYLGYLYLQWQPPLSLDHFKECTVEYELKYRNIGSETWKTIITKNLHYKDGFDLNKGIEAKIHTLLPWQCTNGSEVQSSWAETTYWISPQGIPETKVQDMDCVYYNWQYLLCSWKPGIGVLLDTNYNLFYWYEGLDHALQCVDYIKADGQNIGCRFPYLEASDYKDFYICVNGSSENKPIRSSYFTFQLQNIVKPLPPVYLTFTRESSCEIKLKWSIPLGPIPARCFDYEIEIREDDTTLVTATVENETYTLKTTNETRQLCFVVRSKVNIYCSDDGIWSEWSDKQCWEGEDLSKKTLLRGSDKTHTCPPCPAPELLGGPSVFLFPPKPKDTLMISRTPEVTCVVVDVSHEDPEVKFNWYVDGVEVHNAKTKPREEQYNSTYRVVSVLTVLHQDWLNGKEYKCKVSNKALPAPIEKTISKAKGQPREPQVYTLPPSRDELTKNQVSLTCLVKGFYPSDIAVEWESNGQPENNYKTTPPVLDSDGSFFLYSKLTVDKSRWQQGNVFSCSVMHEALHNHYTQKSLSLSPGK
property: pKd
Schema: pKd number; meaning minus log10 of the concentration expressed in molar units.

# input Which pKd is listed for 1H7 (scFv) (scFv, also called clone 1H7) scFv: EVQLLESGGGLVQPGGSLRLSCAASGFTFRRYAMSWVRQAPGKGLEWVSGISGSGGGTYYADSVKGRFTISRDNSKNTLYLQMNSLRAEDTAVYYCAKVRYGWGAGAFDYWGQGTLVTVSSGGGGSGGGGSGGGGSDIQMTQSPSTLSASVGDRVTITCRASQSISSWLAWYQQKPGKAPKLLIYDASSLESGVPSRFSGSGSGTEFTLTISSLQPDDFATYYCQQYDTYPPITFGQGTKVEIK ?
# output 7.92
